A collection of compounds and their measured IC50
TARGET_OR_SYSTEM: PRMT5/MEP50 (Homo sapiens, UniProt O14744)
Construct: Flag-PRMT5; 6His-MEP50
Sequence (O14744 with tags, fused parts or gaps): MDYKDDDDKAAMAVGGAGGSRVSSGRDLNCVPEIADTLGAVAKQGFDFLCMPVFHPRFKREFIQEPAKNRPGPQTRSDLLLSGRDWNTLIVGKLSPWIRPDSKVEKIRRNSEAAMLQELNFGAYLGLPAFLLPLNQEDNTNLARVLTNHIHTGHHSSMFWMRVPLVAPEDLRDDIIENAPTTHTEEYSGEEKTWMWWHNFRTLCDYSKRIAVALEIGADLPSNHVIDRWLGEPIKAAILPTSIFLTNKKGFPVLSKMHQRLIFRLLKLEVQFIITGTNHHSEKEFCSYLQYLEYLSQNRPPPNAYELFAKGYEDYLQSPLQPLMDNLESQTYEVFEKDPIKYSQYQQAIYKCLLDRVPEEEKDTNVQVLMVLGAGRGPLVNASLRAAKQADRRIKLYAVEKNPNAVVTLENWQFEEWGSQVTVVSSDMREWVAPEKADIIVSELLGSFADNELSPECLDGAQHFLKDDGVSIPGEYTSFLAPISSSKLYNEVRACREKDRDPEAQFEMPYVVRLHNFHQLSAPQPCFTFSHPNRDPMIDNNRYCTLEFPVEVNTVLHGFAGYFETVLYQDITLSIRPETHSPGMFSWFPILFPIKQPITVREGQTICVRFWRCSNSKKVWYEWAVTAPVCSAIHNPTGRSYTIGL
Sequence (Q9BQA1 with tags, fused parts or gaps partner): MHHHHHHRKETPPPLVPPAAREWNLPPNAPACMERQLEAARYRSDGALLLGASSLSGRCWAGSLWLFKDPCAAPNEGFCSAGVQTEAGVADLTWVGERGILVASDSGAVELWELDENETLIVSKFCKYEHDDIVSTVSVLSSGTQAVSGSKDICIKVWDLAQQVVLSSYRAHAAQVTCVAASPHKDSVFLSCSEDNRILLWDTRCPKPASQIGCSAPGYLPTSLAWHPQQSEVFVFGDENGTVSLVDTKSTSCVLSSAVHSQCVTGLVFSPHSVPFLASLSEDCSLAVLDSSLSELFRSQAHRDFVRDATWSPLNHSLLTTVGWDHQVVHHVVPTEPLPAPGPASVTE
PROTOCOL_NOTES: PRMT5 Biochemical Assay (PRMT5/MEP50 enzyme assay on peptide substrate, 3H-SAM Flashplate)

Record excerpt, results attached:
Give the measured IC50 of OCc1ccc(-c2cccc(OCC(O)CN3CCc4ccccc4C3)c2)cc1 (centres unmarked) .
1000 to 10000 nM

Give the measured IC50 of Cn1cnc(C(=O)Nc2cccc(OCC(O)CN3CCc4ccccc4C3)c2)c1 (centres unmarked) .
1000 to 10000 nM

Give the measured IC50 of OC(COc1cccc(-c2cccc3c2oc2ccccc23)c1)CN1CCc2ccccc2C1 (centres unmarked) .
101 to 1000 nM

Give the measured IC50 of OC(COc1ccc2c(c1)OCO2)CN1CCc2ccccc2C1 (centres unmarked) .
1000 to 10000 nM

Give the measured IC50 of CC(=O)N1CCC(n2cnc3ccc(-c4cccc(OCC(O)CN5CCc6ccccc6C5)c4)cc32)CC1 (centres unmarked) .
101 to 1000 nM

Next:
Give the measured IC50 of CS(=O)(=O)c1ccccc1-c1cccc(OCC(O)CN2CCc3ccccc3C2)c1 (centres unmarked) .
101 to 1000 nM

Give the measured IC50 of CC1c2ccccc2CCN1CC(O)COc1cccc(CNC2CCCC2)c1 (centres unmarked) .
1000 to 10000 nM

Give the measured IC50 of O=c1[nH]c2ccc(-c3cccc(OCC(O)CN4CCc5ccccc5C4)c3)cc2[nH]1 (centres unmarked) .
101 to 1000 nM

* * *

TARGET_OR_SYSTEM: PRMT5/MEP50 (Homo sapiens)
Construct: Flag-PRMT5; 6His-MEP50
PROTOCOL_NOTES: PRMT5 Biochemical Assay (PRMT5/MEP50 enzyme assay on peptide substrate, 3H-SAM Flashplate)
pIC50: −log10 of the molar value.
A collection of molecules and their measured pIC50

Record excerpt, results attached:
Give the measured pIC50 of O=C(Nc1cccc(OCC(O)CN2CCc3ccccc3C2)c1)c1ccnnc1 (stereo not drawn) .
5.00 to 6.00

Give the measured pIC50 of OC(COc1cccc(-c2ccc3cnoc3c2)c1)CN1CCc2ccccc2C1 (stereo not drawn) .
5.00 to 6.00

Give the measured pIC50 of Cc1cccc2c1CCN(CC(O)COc1cccc(-c3ccc4ncn(C)c4c3)c1)C2 (stereo not drawn) .
5.00 to 6.00

Give the measured pIC50 of OC(COC1CCN(c2ccccc2)C1)CN1CCc2ccccc2C1 (stereo not drawn) .
5.00 to 6.00

Give the measured pIC50 of CN(C(=O)c1cocn1)c1cccc(OCC(O)CN2CCc3ccccc3C2)c1 (stereo not drawn) .
4.40 to 5.00

Give the measured pIC50 of COc1cc(Cl)cc(-c2cccc(OCC(O)CN3CCc4ccccc4C3)c2)c1 (stereo not drawn) .
6.00 to 7.00

Next:
Give the measured pIC50 of CC(=O)N1CCC(Nc2cc(CNCC(O)CN3CCc4ccccc4C3)ncn2)CC1 (stereo not drawn) .
< 5.00

Give the measured pIC50 of OC(COc1ccc(OCc2ccccc2)cc1)CN1CCc2ccccc2C1 (stereo not drawn) .
5.00 to 6.00

Give the measured pIC50 of Cn1cc2ccc(-c3cccc(OCC(O)CN4CCc5ccccc5C4)c3)cc2n1 (stereo not drawn) .
6.00 to 7.00

* * *

TARGET_OR_SYSTEM: PRMT5/MEP50 (Homo sapiens)
Construct: Flag-PRMT5; 6His-MEP50
PROTOCOL_NOTES: PRMT5 Biochemical Assay (PRMT5/MEP50 enzyme assay on peptide substrate, 3H-SAM Flashplate)
pIC50: −log10 of the molar value.
MEASURED_ENDPOINT: pIC50

Give the measured pIC50 of CC1Cc2ccccc2CN1CC(O)COc1cccc(-c2ccc3ncn(C)c3c2)c1 (stereo not shown) [Compound 122] .
5.00 to 6.00

* * *

A collection of molecules and their measured IC50
TARGET_OR_SYSTEM: PRMT5/MEP50 (Homo sapiens, UniProt O14744)
Construct: Flag-PRMT5; 6His-MEP50
PROTOCOL_NOTES: PRMT5 Biochemical Assay (PRMT5/MEP50 enzyme assay on peptide substrate, 3H-SAM Flashplate)

Give the measured IC50 of OC(COc1cccc(-c2ccccn2)c1)CN1CCc2ccccc2C1 (stereo not shown) [Compound 98] .
1000 to 10000 nM

Next:
Give the measured IC50 of COc1ccc(-c2cccc(OCC(O)CN3CCc4ccccc4C3)c2)cc1 (stereo not shown) [Compound 75] .
101 to 1000 nM

Give the measured IC50 of CC(=O)c1cccc(-c2cccc(OCC(O)CN3CCc4ccccc4C3)c2)c1 (stereo not shown) [Compound 67] .
101 to 1000 nM

Give the measured IC50 of Cn1cnc2ccc(-c3cccc(NCC(O)CN4CCc5ccccc5C4)n3)cc21 (stereo not shown) [Compound 117] .
101 to 1000 nM

Give the measured IC50 of Cn1cnc2ccc(-c3cncc(NCC(O)CN4CCc5ccccc5C4)n3)cc21 (stereo not shown) [Compound 121] .
101 to 1000 nM

Give the measured IC50 of O=C(Nc1cccc(OCC(O)CN2CCc3ccccc3C2)c1)c1cnco1 (stereo not shown) [Compound 158] .
1000 to 10000 nM

Give the measured IC50 of COc1cccc(-c2cccc(OCC(O)CN3CCc4ccccc4C3)c2)c1 (stereo not shown) [Compound 74] .
101 to 1000 nM

Give the measured IC50 of Cn1cnc2ccc(-c3cccc(OCC(O)CN4CCc5ccccc5C4(C)C)c3)cc21 (stereo not shown) [Compound 211] .
1000 to 10000 nM

Give the measured IC50 of O=C(Cn1ccc2cnc(-c3cccc(OCC(O)CN4CCc5ccccc5C4)c3)nc21)N1CCOCC1 (stereo not shown) [Compound 222] .
101 to 1000 nM

* * *

A collection of molecules and their measured pIC50
TARGET_OR_SYSTEM: PRMT5/MEP50 (Homo sapiens)
Construct: Flag-PRMT5; 6His-MEP50
PROTOCOL_NOTES: PRMT5 Biochemical Assay (PRMT5/MEP50 enzyme assay on peptide substrate, 3H-SAM Flashplate)
pIC50: −log10 of the molar value.

Record excerpt, results attached:
Quick check: pIC50 on PRMT5/MEP50 (Homo sapiens), item O=C(Cn1ccc2cnc(-c3cccc(OCC(O)CN4CCc5ccccc5C4)c3)nc21)N1CCCC1 (stereo not shown) [Compound 231] ?
6.00 to 7.00

Quick check: pIC50 on PRMT5/MEP50 (Homo sapiens), item CNC(=O)Cn1cnc2ccc(-c3cccc(OCC(O)CN4CCc5ccccc5C4)c3)cc21 (stereo not shown) [Compound 262] ?
6.00 to 7.00

Quick check: pIC50 on PRMT5/MEP50 (Homo sapiens), item OC(COC1CCCCCC1)CN1CCc2ccccc2C1 (stereo not shown) [Compound 309] ?
5.00 to 6.00

Next:
Quick check: pIC50 on PRMT5/MEP50 (Homo sapiens), item OC(COc1cccc(-c2cnc3ccccc3c2)c1)CN1CCc2ccccc2C1 (stereo not shown) [Compound 89] ?
6.00 to 7.00

* * *

TARGET_OR_SYSTEM: PRMT5/MEP50 (Homo sapiens)
Construct: Flag-PRMT5; 6His-MEP50
PROTOCOL_NOTES: PRMT5 Biochemical Assay (PRMT5/MEP50 enzyme assay on peptide substrate, 3H-SAM Flashplate)
A collection of molecules and their measured IC50

Record excerpt, results attached:
Give the measured IC50 of N#Cc1cccc(-c2cccc(OCC(O)CN3CCc4ccccc4C3)c2)c1 (stereo not drawn) .
101 to 1000 nM

Give the measured IC50 of CS(=O)(=O)c1ccc(-c2cccc(OCC(O)CN3CCc4ccccc4C3)c2)cc1 (stereo not drawn) .
101 to 1000 nM

Give the measured IC50 of CC(C)(C)OC(=O)N1CCC(OCC(O)CN2CCc3ccccc3C2)CC1 (stereo not drawn) .
1000 to 10000 nM

Give the measured IC50 of CC(=O)c1ccc(-c2cccc(OCC(O)CN3CCc4ccccc4C3)c2)cc1 (stereo not drawn) .
101 to 1000 nM

Give the measured IC50 of CN1CCN(C(=O)Cn2cnc3ccc(-c4cccc(OCC(O)CN5CCc6ccccc6C5)c4)cc32)CC1 (stereo not drawn) .
101 to 1000 nM

Give the measured IC50 of OC(COc1cccc(-c2cnccn2)c1)CN1CCc2ccccc2C1 (stereo not drawn) .
1000 to 10000 nM

Give the measured IC50 of Oc1ccc(-c2cccc(OCC(O)CN3CCc4ccccc4C3)c2)cc1 (stereo not drawn) .
1000 to 10000 nM

Give the measured IC50 of Cn1cnc2cc(-c3cc(NCC(O)CN4CCc5ccccc5C4)n[nH]3)ccc21 (stereo not drawn) .
101 to 1000 nM

Next:
Give the measured IC50 of Oc1cccc(-c2cccc(OCC(O)CN3CCc4ccccc4C3)c2)c1 (stereo not drawn) .
101 to 1000 nM

Give the measured IC50 of O=C(Nc1cccc(OCC(O)CN2CCc3ccccc3C2)c1)c1cccnn1 (stereo not drawn) .
1000 to 10000 nM

Give the measured IC50 of CN(CC(O)CN1CCc2ccccc2C1)c1cccc(CNC2CCCC2)c1 (stereo not drawn) .
101 to 1000 nM

Give the measured IC50 of OC(COc1cccc(-c2ccc(C(F)(F)F)cc2C(F)(F)F)c1)CN1CCc2ccccc2C1 (stereo not drawn) .
101 to 1000 nM
